biological target: Potassium voltage-gated channel subfamily KQT member 1 (Homo sapiens) (UniProt P51787); test: inhibitors of human KCNQ1 channel, primary screen, cell-based, thallium flux, high-throughput (AID 2642); conditions: CHO-K1 KCNQ1, FluxOR thallium flux fluorescence, at 10 µM;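 also: channel opened by potassium depolarization with thallium stimulus after 20 min compound exposure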
Sequence (P51787 whole entry, looked up): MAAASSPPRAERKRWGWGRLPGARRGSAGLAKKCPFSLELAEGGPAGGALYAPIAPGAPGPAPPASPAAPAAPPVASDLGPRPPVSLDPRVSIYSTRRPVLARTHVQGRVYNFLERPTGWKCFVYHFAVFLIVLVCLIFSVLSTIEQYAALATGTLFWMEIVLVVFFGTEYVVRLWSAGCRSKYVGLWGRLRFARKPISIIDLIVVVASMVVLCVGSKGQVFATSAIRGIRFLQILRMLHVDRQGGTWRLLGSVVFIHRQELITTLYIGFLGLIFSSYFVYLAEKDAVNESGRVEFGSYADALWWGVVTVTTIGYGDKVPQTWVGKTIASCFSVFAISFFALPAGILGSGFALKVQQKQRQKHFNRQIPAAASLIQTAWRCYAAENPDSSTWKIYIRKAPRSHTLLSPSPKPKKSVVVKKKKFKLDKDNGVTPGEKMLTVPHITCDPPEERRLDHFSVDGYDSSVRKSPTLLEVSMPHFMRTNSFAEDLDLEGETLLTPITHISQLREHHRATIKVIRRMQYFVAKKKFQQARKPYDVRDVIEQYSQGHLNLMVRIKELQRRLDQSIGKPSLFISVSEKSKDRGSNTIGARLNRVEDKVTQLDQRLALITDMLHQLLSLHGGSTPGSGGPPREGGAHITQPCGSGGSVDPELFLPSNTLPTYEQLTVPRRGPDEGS
The whole screen tested about 310,000 compounds, of which about 3,900 (1.3%) were called active.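 The calls were made as follows: active = compounds whose thallium flux B-score, printed positive for inhibition, exceeds three library SD while starting fluorescence stays within three; inactive = the rest.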 The sample holds actives, similar compounds and a random draw of the others, so the mix is not that of the screen.
Choose the fitting class; nothing outside active, inactive is accepted.

{"columns": ["Compound", "Qualitative label"],
 "data": [
  ["O=C(COC(=O)c1cc2c(s1)CCCC2)NCc1ccccc1Cl", "inactive"],
  ["COc1ccc(S(=O)(=O)N(CC(=O)N/N=C/c2ccc(C(=O)O)cc2)Cc2ccccc2)cc1OC", "inactive"],
  ["Cc1cc(=O)n2nc(N3CCCC(C(=O)NCc4ccc(Cl)cc4)C3)sc2n1 (centres undefined)", "inactive"],
  ["O=C1/C(=C/c2ccc(F)cc2)SC(=S)N1CCCC(=O)N1CCCCC1CCO (centres undefined)", "inactive"],
  ["COc1ccc(CC(=O)OC(C)C(=O)Nc2ccc(S(N)(=O)=O)cc2)cc1 (centres undefined)", "inactive"]
]}

Entry COC(=O)c1ccc(/C=C2/C(=O)Oc3ccccc32)cc1 : call = ?
inactive

Entry CCOc1ccc(OCCSc2nc3ccccc3n2CC(=O)O)cc1 : call = ?
inactive

Entry O=C(Nc1ccc(Cl)cc1)Nc1ccc(Oc2cccnc2)nc1 : call = ?
active

Entry COc1ccc2[nH]c(=O)c(C3c4cc(OC)c(OC)cc4CCN3C(=O)c3ccco3)cc2c1 (centres undefined) : call = ?
inactive

Entry COc1ccc(C(=O)OCC(=O)Nc2cccc(C(C)=O)c2)cc1OC : call = ?
inactive

Entry Cc1ccc(NC(=O)Nc2cccnc2)cc1 : call = ?
inactive

Entry CCOC(=O)c1cnc2c(c(C)nn2CC)c1Cl : call = ?
inactive

====

target: Potassium voltage-gated channel subfamily KQT member 1 (Homo sapiens); assay: inhibitors of human KCNQ1 channel, primary screen, cell-based, thallium flux, high-throughput (AID 2642); conditions: CHO-K1 KCNQ1, FluxOR thallium flux fluorescence, at 10 µM
Screen size: about 310,000 compounds; about 3,900 (1.3%) were called active.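 The calls were made as follows: active = compounds whose thallium flux B-score, printed positive for inhibition, exceeds three library SD while starting fluorescence stays within three; inactive = the rest.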 What follows is part of a selection rich in actives, with near analogues and random picks from the rest.
Choose the fitting class; nothing outside active, inactive is accepted.

{"columns": ["Compound", "Qualitative label"],
 "data": [
  ["CS(=O)(=O)N1CCc2nc(-c3ccccc3)sc2C1", "inactive"],
  ["CN(C)CCN(C(=O)C1CCCCC1)c1nc2cc3c(cc2s1)OCO3", "inactive"],
  ["O=c1c(-c2ccccc2)coc2c(CN3CCOCC3)c(O)ccc12", "inactive"],
  ["Cc1ccc(-n2ncc3c2CCCC3NC(=O)c2cnccn2)cc1C (configuration not stated)", "inactive"],
  ["NC1=NC2(CCCCC2)N(c2ccc(F)cc2F)C(N)=N1", "inactive"],
  ["COc1ccccc1C(=O)NCCC(=O)NC(C)CCc1ccccc1 (configuration not stated)", "inactive"],
  ["CC(C)C[C@H](NC(=O)N1CCn2c1nc1ccccc12)C(=O)NC1CC1", "inactive"],
  ["CC1(C)Cc2c(cnn2-c2cccc(F)c2)C(NC(=O)c2cc[n+]([O-])cc2)C1 (configuration not stated)", "inactive"]
]}

Entry CCc1ccc(NC(=O)NC(C)c2ccc3c(c2)OCO3)cc1 (configuration not stated) : call = ?
inactive

Entry COc1ccc(C(=O)NC2CCCc3c2cnn3-c2cccc(C)c2C)c(OC)n1 (configuration not stated) : call = ?
active

Entry Cc1cc(Cl)ccc1OCCCC(=O)Nc1cccc(-n2cnnn2)c1 : call = ?
inactive

====

target: Potassium voltage-gated channel subfamily KQT member 1 (Homo sapiens) (UniProt P51787); experiment: inhibitors of human KCNQ1 channel, primary screen, cell-based, thallium flux, high-throughput (AID 2642); details: CHO-K1 KCNQ1, FluxOR thallium flux fluorescence, at 10 µM
The campaign covered roughly 310,000 compounds. About 3,900 (1.3%) were called active.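 How the source made its calls: active means compounds whose thallium flux B-score, printed positive for inhibition, exceeds three library SD while starting fluorescence stays within three; inactive means the rest.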 Many of the other results were omitted from the sample, so actives are more common in it than they were.
Choose the fitting class; nothing outside True (active), False (inactive) is accepted.

{"columns": ["Compound", "Qualitative label"],
 "data": [
  ["C=CCn1c(-c2sc(-c3ccccc3)nc2C)n[nH]c1=S", "False"],
  ["CCOc1ccc(CN2CCCN(C)CC2)cc1", "False"],
  ["Cc1csc(NC(=O)C2=COCCO2)n1", "False"]
]}

Entry CS(=O)(=O)N(CC(=O)Nc1ccc(Cl)c(Cl)c1)C1CCCCC1 : call = ?
True

Entry O=C(Nc1ccccc1)N1CCN(C(=O)Nc2ccccc2)CC1 : call = ?
False

Entry COC(=O)CN1C(=O)[C@H]2[C@@H](/C=C/c3ccccc3)N3C(=O)CN(Cc4ccccc4)C(=O)[C@@]3(Cc3ccccc3)[C@H]2C1=O : call = ?
False

Entry O=C(Cc1ccsc1)N1CCN(S(=O)(=O)c2cc(C(F)(F)F)cc(C(F)(F)F)c2)CC1 : call = ?
False

====

biological target: Potassium voltage-gated channel subfamily KQT member 1 (Homo sapiens); assay: inhibitors of human KCNQ1 channel, primary screen, cell-based, thallium flux, high-throughput (AID 2642); conditions: CHO-K1 KCNQ1, FluxOR thallium flux fluorescence, at 10 µM;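 also: channel opened by potassium depolarization with thallium stimulus after 20 min compound exposure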
Among all 310,000 compounds or so, about 3,900 (1.3%) were called active.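 The calls were made as follows: active = compounds whose thallium flux B-score, printed positive for inhibition, exceeds three library SD while starting fluorescence stays within three; inactive = the rest.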 This is one part of a sample in which actives are shown more often than they occur.
Choose the fitting class; nothing outside 1 (active), -1 (inactive) is accepted.

Entry CC(=O)C(C)n1cnc2scc(-c3ccc(C)cc3)c2c1=O (configuration not stated) : call = ?
-1

Entry COc1ccc(-c2cc(C(F)(F)F)nc(NCc3cccnc3)n2)cc1 : call = ?
-1

Entry NS(=O)(=O)c1ccc(NC(=S)Nc2ccc(Br)c(Cl)c2)cc1 : call = ?
1

Entry CN1CCN(C(CNS(=O)(=O)c2cccs2)c2cccnc2)CC1 (configuration not stated) : call = ?
-1

Entry CC(=O)N/C(=C/c1ccc(Cl)cc1)C(=O)NCCc1c[nH]c2ccccc12 : call = ?
-1

Entry COc1cc(OC)cc(C(=O)NC(=S)N2CCN(c3ccc(C(F)(F)F)cc3[N+](=O)[O-])CC2)c1 : call = ?
-1

Entry Cc1ccccc1OCC(=O)Nc1ccc(N2CCN(C(=O)C(C)C)CC2)c(Cl)c1 : call = ?
1

====

target: Potassium voltage-gated channel subfamily KQT member 1 (Homo sapiens) (UniProt P51787); experiment: inhibitors of human KCNQ1 channel, primary screen, cell-based, thallium flux, high-throughput (AID 2642); conditions: CHO-K1 KCNQ1, FluxOR thallium flux fluorescence, at 10 µM;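 also: channel opened by potassium depolarization with thallium stimulus after 20 min compound exposure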
Among all 310,000 compounds or so, about 3,900 (1.3%) were called active.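 Rule for the calls: active = compounds whose thallium flux B-score, printed positive for inhibition, exceeds three library SD while starting fluorescence stays within three; inactive = the rest.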 Many of the other results were omitted from the sample, so actives are more common in it than they were.
Choose the fitting class; nothing outside active, inactive is accepted.

Entry COc1ccc(Nc2ncnc3ccc(Br)cc23)c(OC)c1 : call = ?
inactive

Entry CC(=O)NCc1ccc(S(=O)(=O)NC2CCN(Cc3ccccc3)CC2)cc1 : call = ?
inactive

Entry C=CCC1(CC=C)CCCN1C(=O)CC1C(=O)NCCN1Cc1ccccc1OC (stereo not drawn) : call = ?
inactive

Entry COCCN1Cc2cccc(C(=O)Nc3ccccc3OC)c2C1=O : call = ?
inactive

Entry Cc1ccc(OC(=O)c2cncc(Br)c2)c(C)c1 : call = ?
inactive

Entry N#C/C(=C/c1ccc(N2CCOCC2)o1)C(=O)N1CCOCC1 : call = ?
inactive

Entry Cc1cnc(C(=O)OCC(=O)NCCCc2ccccc2)cn1 : call = ?
inactive

Entry CCOC(=O)C1CCN(C(=O)C2CCN(S(=O)(=O)CC)CC2)CC1 : call = ?
inactive

Entry N#C/C(=C\c1ccc(N2CCOCC2)o1)C(=O)N1CCOCC1 : call = ?
active

====

molecular target: Potassium voltage-gated channel subfamily KQT member 1 (Homo sapiens); experiment: inhibitors of human KCNQ1 channel, primary screen, cell-based, thallium flux, high-throughput (AID 2642); conditions: CHO-K1 KCNQ1, FluxOR thallium flux fluorescence, at 10 µM;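 also: channel opened by potassium depolarization with thallium stimulus after 20 min compound exposure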
Among all 310,000 compounds or so, about 3,900 (1.3%) were called active.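 Rule for the calls: active = compounds whose thallium flux B-score, printed positive for inhibition, exceeds three library SD while starting fluorescence stays within three; inactive = the rest.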 What follows is part of a selection rich in actives, with near analogues and random picks from the rest.
Choose the fitting class; nothing outside Y for active, N for inactive is accepted.

Solved cases below.
{"columns": ["Compound", "Qualitative label"],
 "data": [
  ["COc1ccc(-n2c(C)cc(C(=O)COC(=O)c3cc(OC)c(OC)cc3NC(=O)c3cccs3)c2C)cc1", "N"],
  ["CCCOc1ccc(C(=O)CCC(=O)OC(C)C(=O)Nc2ccc(NC(C)=O)cc2)cc1 (configuration not stated)", "N"],
  ["COc1ccc(CCNC(=O)CCNS(=O)(=O)c2cc(Br)cnc2N)cc1OC", "N"],
  ["Cc1ccc(-c2noc(CSc3nnc(-c4ccccc4)n3C)n2)cc1", "N"],
  ["CCCN1C(=O)C(Cc2nc3ccccc3c(=O)n2-c2ccccc2)c2cc(C)ccc21 (configuration not stated)", "N"],
  ["Cc1c(Cl)cccc1NC(=O)NCCCN1CCCC1=O", "N"],
  ["CCc1ccccc1NC(=O)/C(=C/c1ccccc1)c1ccccc1", "N"],
  ["CC(C)CC(=O)N1CCN(Cc2ccccc2Br)CC1", "N"]
]}

Entry CC(=O)N(C1=C(Cl)C(=O)c2ccccc2C1=O)c1ccc(C(=O)O)cc1 : call = ?
Y

Entry O=C(CS(=O)(=O)c1cn(Cc2ccc(Cl)cc2)c2ccccc12)N1CCOCC1 : call = ?
N

Entry Cn1c(=O)c2c(nc(N3CCOCC3)n2CCNC2=NCCC2)n(C)c1=O : call = ?
N

Entry CN(C)Cc1ccccc1C1(O)c2ccccc2CSc2ccccc21 (configuration not stated) : call = ?
Y
